Kindly supply the reported chromatographic logP values for the records listed here.
Test: experimentally determined lipophilicity (logPTLC)
Assay type: physicochemical
Details: thin-layer chromatography (TLC)
Please give only the number in your answer, with no unit.

# chromatographic logP lookup, item `C[n+]1cc2c(c3ccccc31)Nc1ccc(F)nc1S2`
4.24

Now the same for `Cc1ccnc2c1Nc1c(c[n+](C)c3ccccc13)S2`
4.17

Try `C[n+]1cc2c(c3ccccc31)Nc1cccnc1S2` next.
3.53

What do you get for `C[n+]1cc2c(c3ccccc31)Nc1ccc(Br)nc1S2` ?
4.8

Also `C[n+]1cc2c(c3ccccc31)Nc1cc(Br)cnc1S2` , if possible.
4.57

====

Dear all, this message contains MIC results, target or system Staphylococcus aureus ATCC 29213.
API: value field is a number in µM; no unit string.

Reported MIC for `Cc1ccnc2c1Nc1c(c[n+](C)c3ccccc13)S2` : what is it?
203

Again, but for `C[n+]1cc2c(c3ccccc31)Nc1cccnc1S2`
212

What about this compound? `C[n+]1cc2c(c3ccccc31)Nc1cc(Br)cnc1S2`
42.1

Now consider `Cc1cc(F)nc2c1Nc1c(c[n+](C)c3ccccc13)S2` .
383

Do the same for `C[n+]1cc2c(c3ccccc31)Nc1ccc(F)nc1S2` please
50.2

Repeat for the following compound: `C[n+]1cc2c(c3ccccc31)Nc1cnccc1S2`
424

What would you report for `C[n+]1cc2c(c3ccccc31)Nc1ccc(Br)nc1S2` ?
337

Field entry: `C[n+]1cc2c(c3ccccc31)Nc1ccc(Cl)nc1S2`
381

Can you check `COc1ccc2c(n1)Sc1c[n+](C)c3ccccc3c1N2` next?
193

Continue with `C[n+]1cc2c(c3ccccc31)Nc1ccc(I)nc1S2`
299

Try CC1(C)S[C@@H]2[C@H](NC(=O)[C@H](N)c3ccccc3)C(=O)N2[C@H]1C(=O)O [AMP, Ampicillin, reference compound] next.
5.72

====

System: SNB-19 (human glioblastoma)
Experiment: WST-1 cell proliferation assay, SNB-19
Type: cell-based
Conditions: 72 h exposure, mean ± std
reported_metric: pIC50
Remember the convention: pIC50 equals -log10 of concentration in molar.

Need pIC50, item N.N.[Cl][Pt][Cl] [cisplatinum, reference compound]
4.78

====

System: T47D (human breast cancer)
Test: WST-1 cell proliferation assay, T47D
Format: cell-based
Conditions: Homo sapiens, T47D, 72 h exposure, mean ± std
Description: Compounds were evaluated for their antiproliferative activity using […] cultured cell lines: A549 (human lung carcinoma, ATCC, Manassas, VA, USA), SNB-19 (human glioblastoma, DSMZ, German Collection of Microorganisms and Cell Cultures), T-47D (human breast cancer, ATCC, Manassas, VA, USA) and NHDF (normal human dermal fibroblasts, ATCC, Manassas, VA, USA). The cultured cells were kept at 37 °C and 5% CO2. […]
reported_metric: IC50 (µM)
Write the answer as a number in µM, unit excluded.

Need IC50, item C[n+]1cc2c(c3ccccc31)Nc1ccc(F)nc1S2 [3e]
2.8

Moving on to the next molecule: C[n+]1cc2c(c3ccccc31)Nc1ccc(I)nc1S2 [3f]
128

Okay, and C[n+]1cc2c(c3ccccc31)Nc1ccc(Br)nc1S2 [3b] ?
5.2

Next molecule: Cc1cc(Cl)nc2c1Nc1c(c[n+](C)c3ccccc13)S2 [3g]
26.7

Lookup C[n+]1cc2c(c3ccccc31)Nc1cnccc1S2 [4a]
36.8

====

Tested on: methicillin-resistant S. aureus 63718
Assay: broth dilution micro-method MIC, MRSA 63718
Type: cell-based
Settings: Staphylococcus aureus, clinical isolate, 24 h, 37 °C
Description: The synthesized compounds were evaluated for in vitro antibacterial activity against representatives of multidrug-resistant bacteria and clinical isolates of methicillin-resistant Staphylococcus aureus (MRSA) 63718, SA 630, and SA 3202 that were obtained from the National Institute of Public Health (Prague, Czech Republic). S. aureus ATCC 29213 was used as a reference and quality control strain. […] The final concentrations of the evaluated compounds ranged from 256 to 0.008 μg/mL. […]
reported_metric: MIC (µM)
Give the quantity in µM, number only.

Data request, read-out MIC, for `Cc1ccnc2c1Nc1c(c[n+](C)c3ccccc13)S2`
203

`COc1ccc2c(n1)Sc1c[n+](C)c3ccccc3c1N2` , same question.
193

Another compound: `C[n+]1cc2c(c3ccccc31)Nc1ccc(Br)nc1S2`
337

Same again, this time with CC1(C)S[C@@H]2[C@H](NC(=O)[C@H](N)c3ccccc3)C(=O)N2[C@H]1C(=O)O [AMP, Ampicillin, reference compound]
45.8

Same read-out for `Cc1cc(F)nc2c1Nc1c(c[n+](C)c3ccccc13)S2` ?
383

Same thing, different compound: `C[n+]1cc2c(c3ccccc31)Nc1ccc(I)nc1S2`
299

And what about the compound `C[n+]1cc2c(c3ccccc31)Nc1cccnc1S2` ?
212

Try `C[n+]1cc2c(c3ccccc31)Nc1cnccc1S2` next.
424
